Assay: Pharmacokinetics after single and multiple doses, part 1
Format: in vivo, human
Conditions: human, plasma, oral, 25 mg, tmax,ss, young, 25 mg QD, multiple dose, median and range (minimum, maximum)
observationType: Tmax (h)

cpdsmiles=C[C@@H](Oc1ccc(S(C)(=O)=O)cc1C(=O)N1C[C@@H]2C[C@]2(c2cc(C(F)(F)F)on2)C1)C(F)(F)F unitannotation=h observedresult=3.75

###

Assay: Pharmacokinetics after single and multiple doses, part 1
Assay type: in vivo, human
Conditions: human, plasma, oral, 50 mg, Cmax,ss, young, 50 mg QD, multiple dose, gMean (%CV)
observationType: Cmax (nM)

compound="C[C@@H](Oc1ccc(S(C)(=O)=O)cc1C(=O)N1C[C@@H]2C[C@]2(c2cc(C(F)(F)F)on2)C1)C(F)(F)F [BI 425809]" observationtype=Cmax observedresult=800
